assaySummary: Pharmacokinetic evaluation: plasma concentration in rats
Type: in vivo, Male SD rats
studyConditions: rat, plasma; po 10 mg/kg, 2 h
reportedMetric: concentration at 2 h (ng/mL)
// return numeric value only (unit: ng/mL, not printed)

Some solved entries appear below for comparison.
molecule	quantitativeResult
CC(C)CP(=O)(O)C/C(=C\C1CC1)C(=O)O [Compound No. 10]	800
O=C(O)/C(=C/C1CCCCC1)CP(=O)(O)CC1CCCCC1 [Compound No. 28]	3000
CC(C)CP(=O)(O)C/C(=C\C1CCCCC1)C(=O)O [Compound No. 2]	3800
CC1(C)CC1P(=O)(O)C/C(=C\C1CCCCC1)C(=O)O (centres unmarked) [Compound No. 5]	3400

concentration at 2 h for O=C(O)/C(=C/C1CCCCC1)CP(=O)(O)CC1CCCC1 [Compound No. 17] ?
3200

###

assaySummary: Pharmacokinetic evaluation: plasma concentration in rats
Format: in vivo, Male SD rats
studyConditions: plasma; rat, iv 10 mg/kg (cilastatin dose not given), trapezoidal rule
reportedMetric: AUC (ng·h/mL)
// return numeric value only (unit: ng·h/mL, not printed)

compound	AUC / ng·h/mL
CC(C)CP(=O)(O)C/C(=C\CCCC(=O)O)C(=O)O	9300
O=C(O)/C(=C/C1CCCCC1)CP(=O)(O)CC1CCCC1	226000
O=C(O)/C(=C/C1CCCCC1)CP(=O)(O)CC1CCCCC1	82400

AUC for CC(C)CP(=O)(O)C/C(=C\C1CCCCC1)C(=O)O ?
162000

AUC for CC1(C)CC1P(=O)(O)C/C(=C\C1CCCCC1)C(=O)O (stereo not shown) ?
88200

AUC for CC(C)CP(=O)(O)C/C(=C\C1CC1)C(=O)O ?
40600

AUC for CC(C)CP(=O)(O)C/C(=C\CCCSC[C@H](N)C(=O)O)C(=O)O ?
17900

###

assaySummary: Pharmacokinetic evaluation: plasma concentration in dogs
Type: in vivo, Male beagle dogs
studyConditions: dog, iv 10 mg/kg, 6 h
reportedMetric: concentration at 6 h (ng/mL)
// return numeric value only (unit: ng/mL, not printed)

concentration at 6 h for CC(C)CP(=O)(O)C/C(=C\C1CCCCC1)C(=O)O ?
2400

###

assaySummary: Pharmacokinetic evaluation: plasma concentration in dogs
Assay type: in vivo, Male beagle dogs
studyConditions: dog, iv 10 mg/kg, 8 h
reportedMetric: concentration at 8 h (ng/mL)
// return numeric value only (unit: ng/mL, not printed)

concentration at 8 h for CC(C)CP(=O)(O)C/C(=C\C1CCCCC1)C(=O)O [Compound No. 2] ?
1200

###

assaySummary: Pharmacokinetic evaluation: plasma concentration in rats
Type: in vivo, Male SD rats
studyConditions: rat, plasma; po 10 mg/kg, 1/4 h
reportedMetric: concentration at 0.25 h (ng/mL)
// return numeric value only (unit: ng/mL, not printed)

concentration at 0.25 h for CC1(C)CC1P(=O)(O)C/C(=C\C1CCCCC1)C(=O)O (centres unmarked) ?
4700

concentration at 0.25 h for O=C(O)/C(=C/C1CCCCC1)CP(=O)(O)CC1CCCC1 ?
4100

###

# concentration at 5 min per record follows
assaySummary: Pharmacokinetic evaluation: plasma concentration in rats
Type: in vivo, Male SD rats
studyConditions: rat, plasma; po 10 mg/kg, 1/12 h
// return numeric value only (unit: ng/mL, not printed)

Some solved entries appear below for comparison.
compound	reportedMetric	valueUnit	quantitativeResult
CC(C)CP(=O)(O)C/C(=C\C1CCCCC1)C(=O)O	concentration at 5 min	ng/mL	3300
O=C(O)/C(=C/C1CCCCC1)CP(=O)(O)CC1CCCCC1	concentration at 5 min	ng/mL	1300
CC(C)CP(=O)(O)C/C(=C\C1CC1)C(=O)O	concentration at 5 min	ng/mL	500
O=C(O)/C(=C/C1CCCCC1)CP(=O)(O)CC1CCCC1	concentration at 5 min	ng/mL	500

Let's switch to this compound now.
concentration at 5 min for CC1(C)CC1P(=O)(O)C/C(=C\C1CCCCC1)C(=O)O (centres unmarked) ?
2500

###

assaySummary: Pharmacokinetic evaluation: plasma concentration in rats
Format: in vivo, Male SD rats
studyConditions: rat, plasma; ester po, 10 mg/kg equivalent to compound No. 2, calculated as free acid (No. 2), 1/4 h
reportedMetric: concentration at 0.25 h (ng/mL)
// return numeric value only (unit: ng/mL, not printed)

concentration at 0.25 h for Cc1oc(=O)oc1COC(=O)/C(=C/C1CCCCC1)CP(=O)(O)CC(C)C [Compound No. 27] ?
10100

###

assaySummary: Pharmacokinetic evaluation: plasma concentration in dogs
Format: in vivo, Male beagle dogs
studyConditions: dog, po 10 mg/kg, 1/12 h
reportedMetric: concentration at 5 min
Don't forget the unit after the value.

concentration at 5 min for CC(C)CP(=O)(O)C/C(=C\C1CCCCC1)C(=O)O ?
500 ng/mL

###

assaySummary: Pharmacokinetic evaluation: plasma concentration in rats
Assay type: in vivo, Male SD rats
studyConditions: rat, plasma; ester po, 10 mg/kg equivalent to compound No. 2, calculated as free acid (No. 2), 1/12 h
reportedMetric: concentration at 5 min (ng/mL)
// return numeric value only (unit: ng/mL, not printed)

concentration at 5 min for Cc1oc(=O)oc1COC(=O)/C(=C/C1CCCCC1)CP(=O)(O)CC(C)C ?
1500

###

assaySummary: Pharmacokinetic evaluation: plasma concentration in dogs
Assay type: in vivo, Male beagle dogs
studyConditions: dog, po 10 mg/kg, 6 h
reportedMetric: concentration at 6 h (ng/mL)
// return numeric value only (unit: ng/mL, not printed)

concentration at 6 h for CC(C)CP(=O)(O)C/C(=C\C1CCCCC1)C(=O)O ?
1600

###

system: porcine kidney dehydropeptidase I (Sus scrofa, UniProt P22412)
Construct: Frozen porcine kidney cortex was homogenized; from tissue; host or cells: porcine kidney cortex
Sequence (P22412 17-409): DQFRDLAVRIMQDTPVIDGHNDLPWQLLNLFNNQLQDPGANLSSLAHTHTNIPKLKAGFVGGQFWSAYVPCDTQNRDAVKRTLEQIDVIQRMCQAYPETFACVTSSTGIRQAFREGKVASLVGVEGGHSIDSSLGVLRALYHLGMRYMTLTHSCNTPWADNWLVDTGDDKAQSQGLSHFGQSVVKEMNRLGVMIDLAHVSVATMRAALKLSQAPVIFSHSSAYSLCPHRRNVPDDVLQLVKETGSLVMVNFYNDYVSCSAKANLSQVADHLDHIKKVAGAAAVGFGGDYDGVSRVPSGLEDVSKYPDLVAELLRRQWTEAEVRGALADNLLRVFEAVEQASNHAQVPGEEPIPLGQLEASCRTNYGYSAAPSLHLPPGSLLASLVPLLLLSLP
assaySummary: Inhibitory activity on porcine kidney dehydropeptidase I (DHP-I)
Assay type: biochemical
reportedMetric: IC50 (nM)
// return numeric value only (unit: nM, not printed)

molecule	valueUnit	IC50
C/C=C(\CP(=O)(O)CC(C)C)C(=O)O [compound 30]	nM	75

Let's switch to this molecule now.
IC50 for CC1(C)C[C@@H]1C(=O)N/C(=C\CCCCSC[C@H](N)C(=O)O)C(=O)O [Cilastatin, reference compound] ?
100

###

assaySummary: Pharmacokinetic evaluation: plasma concentration in rats
Format: in vivo, Male SD rats
studyConditions: rat, plasma; ester po, 10 mg/kg equivalent to compound No. 2, calculated as free acid (No. 2), 8 h
reportedMetric: concentration at 8 h
Don't forget the unit after the value.

concentration at 8 h for Cc1oc(=O)oc1COC(=O)/C(=C/C1CCCCC1)CP(=O)(O)CC(C)C [Compound No. 27] ?
1400 ng/mL

###

assaySummary: Pharmacokinetic evaluation: plasma concentration in rats
Assay type: in vivo, Male SD rats
studyConditions: in vivo; rat, iv 10 mg/kg (cilastatin dose not given), trapezoidal rule
reportedMetric: AUC (µg·h/mL)
// return numeric value only (unit: µg·h/mL, not printed)

AUC for CC1(C)C[C@@H]1C(=O)N/C(=C\CCCCSC[C@H](N)C(=O)O)C(=O)O [Cilastatin, reference compound] ?
12

###

assaySummary: Pharmacokinetic evaluation: plasma concentration in rats
Assay type: in vivo, Male SD rats
studyConditions: rat, plasma; po 10 mg/kg, 1/2 h
reportedMetric: concentration at 0.5 h (ng/mL)
// return numeric value only (unit: ng/mL, not printed)

compound	concentration at 0.5 h (ng/mL)
CC(C)CP(=O)(O)C/C(=C\C1CCCCC1)C(=O)O	6800
O=C(O)/C(=C/C1CCCCC1)CP(=O)(O)CC1CCCCC1	3400
O=C(O)/C(=C/C1CCCCC1)CP(=O)(O)CC1CCCC1	5000
CC1(C)CC1P(=O)(O)C/C(=C\C1CCCCC1)C(=O)O (centres unmarked)	6400

concentration at 0.5 h for CC(C)CP(=O)(O)C/C(=C\C1CC1)C(=O)O ?
1400
